# procedure-text: Bioanalytical assessment of plasma and brain concentrations after 6 Hz assay
# Format: in vivo, mouse
# experimental-context: Scn8a N1768D/+, mouse, brain, oral, 10 mg/kg, Study15064, 10 mg/kg, SCN8A mouse 6HZ; read-out: Mean [Brain]
readout: concentration at 2 h
Could you write the number and then its unit?

NC(=O)N1c2ccccc2C=Cc2ccccc21 [carbamazepine, Carbamazepine, reference compound] has a reported concentration at 2 h of 2240 nM

----------
# procedure-text: Bioanalytical assessment of plasma and brain concentrations after 6 Hz assay
# Format: in vivo, mouse
# experimental-context: Scn8a^N1768D/+, mouse, brain, po, 6 mg/kg, Scn8a mice, 6 mg/kg PO every 12 hr, day 7, 2 hr after 13th dose; read-out: Mean [Brain]
readout: concentration at 2 hr (nM)
Only the number, expressed in nM, is required.

// concentration at 2 hr value for `Cc1cc(S(=O)(=O)Nc2cscn2)c(F)cc1N(C)[C@H]1CCN(Cc2ccccc2)C1` : 28.8

----------
# procedure-text: Bioanalytical assessment of plasma and brain concentrations after mouse DC-MES assay
# Assay type: in vivo
# experimental-context: mouse, brain, intraperitoneal, 5 mg/kg, Study17136, 5 mg/kg, WT mouse DC-MES acute; read-out: Mean [Brain]
readout: concentration at 2 h (µM)
Value expressed in µM; do not type the unit.

Kindly note the recorded concentration at 2 h for O=C1NC(=O)C(c2ccccc2)(c2ccccc2)N1 [phenytoin, Phenytoin] , which is 10.9

----------
# procedure-text: Bioanalytical assessment of plasma and brain concentrations after 6 Hz assay
# Format: in vivo, mouse
# experimental-context: Scn8a^N1768D/+, mouse, in vivo, 3 mg/kg, Study18007, 3 mg/kg, SCN8A mouse 6HZ; read-out: Mean [Palsma]
readout: concentration at 2 h (µM)
Enter your answer as a number in µM; do not include the unit.

Note to self: concentration at 2 h recorded for COC[C@@H](NC(C)=O)C(=O)NCc1ccccc1 [lacosamide, Lacosamide, reference compound] was 3.48

----------
# procedure-text: Bioanalytical assessment of plasma and brain concentrations after 6 Hz assay
# Format: in vivo, mouse
# experimental-context: Scn8a^N1768D/+ (heterozygous gain-of-function knock-in line), mouse, plasma, po, 3 mg/kg, Scn8a mice, 3 mg/kg PO single dose, after assay 2 hr post dose; read-out: Mean [Plasma]
readout: concentration at 2 hr (nM)
Answer format: numeric, nM implied, no suffix.

// field: concentration at 2 hr; key: Cc1cc(S(=O)(=O)Nc2cscn2)c(F)cc1N(C)[C@H]1CCN(Cc2ccccc2)C1 [NBI-921352] ; value = 3.45

----------
# procedure-text: Bioanalytical assessment of plasma and brain concentrations after mouse DC-MES assay
# Type: in vivo
# experimental-context: mouse, brain, po, 100 mg/kg, WT mice, 100 mg/kg PO single dose, 2 h; read-out: Mean [Brain]
# Method: Approximately 0.5 mL of blood was collected from each mouse at the end of the assay via cardiac puncture under deep anesthesia. The blood samples were collected in a syringe and transferred to tubes containing EDTA. Blood was stored at 4 °C until centrifuged within 30 min of collection. […] Extraction of plasma samples was carried out by protein precipitation using acetonitrile. […] The samples were analyzed by UHPLC-ESI-MS/MS as described below. […]
readout: concentration at 2 h (nM)
Quick reminder: number only, in nM, skip the unit.

concentration at 2 h reported for this molecule `Cc1cc(S(=O)(=O)Nc2cscn2)c(F)cc1N(C)[C@H]1CCN(Cc2ccccc2)C1` : 646

----------
# procedure-text: Bioanalytical assessment of plasma and brain concentrations after 6 Hz assay
# Type: in vivo, mouse
# experimental-context: Scn8a^N1768D/+, mouse, in vivo, 10 mg/kg, Study18007, 10 mg/kg, SCN8A mouse 6HZ; read-out: Mean [Brain]
readout: concentration at 2 h (µM)
Number only, in µM; omit the unit.

For this compound ( COC[C@@H](NC(C)=O)C(=O)NCc1ccccc1 [lacosamide, Lacosamide, reference compound] ), measured concentration at 2 h is 9.32

----------
# procedure-text: Bioanalytical assessment of plasma and brain concentrations after 6 Hz assay
# Type: in vivo, mouse
# experimental-context: Scn8a N1768D/+, mouse, brain, oral, 3 mg/kg, Study16152, 3 mg/kg, SCN8A mouse 6HZ; read-out: Mean [Brain]
readout: concentration at 2 h (nM)
Express your answer in nM, writing the number without its unit.

Entry NC(=O)N1c2ccccc2C=Cc2ccccc21 [carbamazepine, Carbamazepine, reference compound] — recorded concentration at 2 h = 2700

----------
# procedure-text: Bioanalytical assessment of plasma and brain concentrations after mouse DC-MES assay
# Type: in vivo
# experimental-context: mouse, in vivo, 3 mg/kg, Study18063, 3 mg/kg, WT mouse DC-MES acute; read-out: Mean [Palsma]
# Procedure: Approximately 0.5 mL of blood was collected from each mouse at the end of the assay via cardiac puncture under deep anesthesia. The blood samples were collected in a syringe and transferred to tubes containing EDTA. Blood was stored at 4 °C until centrifuged within 30 min of collection. […] Extraction of plasma samples was carried out by protein precipitation using acetonitrile. […] The samples were analyzed by UHPLC-ESI-MS/MS as described below. […]
readout: concentration at 2 h (µM)
Give the number; µM is assumed, so skip it.

What the record says about COC[C@@H](NC(C)=O)C(=O)NCc1ccccc1 [lacosamide, Lacosamide, reference compound] : concentration at 2 h is 4.46

----------
# measured-target: hNaV1.6 T767I (Homo sapiens, UniProt Q9UQD0, T767I)
# Construct: expression vector containing the full-length cDNA coding for specific human and mouse sodium channel α-subunit
# Sequence (Q9UQD0 whole entry T767I): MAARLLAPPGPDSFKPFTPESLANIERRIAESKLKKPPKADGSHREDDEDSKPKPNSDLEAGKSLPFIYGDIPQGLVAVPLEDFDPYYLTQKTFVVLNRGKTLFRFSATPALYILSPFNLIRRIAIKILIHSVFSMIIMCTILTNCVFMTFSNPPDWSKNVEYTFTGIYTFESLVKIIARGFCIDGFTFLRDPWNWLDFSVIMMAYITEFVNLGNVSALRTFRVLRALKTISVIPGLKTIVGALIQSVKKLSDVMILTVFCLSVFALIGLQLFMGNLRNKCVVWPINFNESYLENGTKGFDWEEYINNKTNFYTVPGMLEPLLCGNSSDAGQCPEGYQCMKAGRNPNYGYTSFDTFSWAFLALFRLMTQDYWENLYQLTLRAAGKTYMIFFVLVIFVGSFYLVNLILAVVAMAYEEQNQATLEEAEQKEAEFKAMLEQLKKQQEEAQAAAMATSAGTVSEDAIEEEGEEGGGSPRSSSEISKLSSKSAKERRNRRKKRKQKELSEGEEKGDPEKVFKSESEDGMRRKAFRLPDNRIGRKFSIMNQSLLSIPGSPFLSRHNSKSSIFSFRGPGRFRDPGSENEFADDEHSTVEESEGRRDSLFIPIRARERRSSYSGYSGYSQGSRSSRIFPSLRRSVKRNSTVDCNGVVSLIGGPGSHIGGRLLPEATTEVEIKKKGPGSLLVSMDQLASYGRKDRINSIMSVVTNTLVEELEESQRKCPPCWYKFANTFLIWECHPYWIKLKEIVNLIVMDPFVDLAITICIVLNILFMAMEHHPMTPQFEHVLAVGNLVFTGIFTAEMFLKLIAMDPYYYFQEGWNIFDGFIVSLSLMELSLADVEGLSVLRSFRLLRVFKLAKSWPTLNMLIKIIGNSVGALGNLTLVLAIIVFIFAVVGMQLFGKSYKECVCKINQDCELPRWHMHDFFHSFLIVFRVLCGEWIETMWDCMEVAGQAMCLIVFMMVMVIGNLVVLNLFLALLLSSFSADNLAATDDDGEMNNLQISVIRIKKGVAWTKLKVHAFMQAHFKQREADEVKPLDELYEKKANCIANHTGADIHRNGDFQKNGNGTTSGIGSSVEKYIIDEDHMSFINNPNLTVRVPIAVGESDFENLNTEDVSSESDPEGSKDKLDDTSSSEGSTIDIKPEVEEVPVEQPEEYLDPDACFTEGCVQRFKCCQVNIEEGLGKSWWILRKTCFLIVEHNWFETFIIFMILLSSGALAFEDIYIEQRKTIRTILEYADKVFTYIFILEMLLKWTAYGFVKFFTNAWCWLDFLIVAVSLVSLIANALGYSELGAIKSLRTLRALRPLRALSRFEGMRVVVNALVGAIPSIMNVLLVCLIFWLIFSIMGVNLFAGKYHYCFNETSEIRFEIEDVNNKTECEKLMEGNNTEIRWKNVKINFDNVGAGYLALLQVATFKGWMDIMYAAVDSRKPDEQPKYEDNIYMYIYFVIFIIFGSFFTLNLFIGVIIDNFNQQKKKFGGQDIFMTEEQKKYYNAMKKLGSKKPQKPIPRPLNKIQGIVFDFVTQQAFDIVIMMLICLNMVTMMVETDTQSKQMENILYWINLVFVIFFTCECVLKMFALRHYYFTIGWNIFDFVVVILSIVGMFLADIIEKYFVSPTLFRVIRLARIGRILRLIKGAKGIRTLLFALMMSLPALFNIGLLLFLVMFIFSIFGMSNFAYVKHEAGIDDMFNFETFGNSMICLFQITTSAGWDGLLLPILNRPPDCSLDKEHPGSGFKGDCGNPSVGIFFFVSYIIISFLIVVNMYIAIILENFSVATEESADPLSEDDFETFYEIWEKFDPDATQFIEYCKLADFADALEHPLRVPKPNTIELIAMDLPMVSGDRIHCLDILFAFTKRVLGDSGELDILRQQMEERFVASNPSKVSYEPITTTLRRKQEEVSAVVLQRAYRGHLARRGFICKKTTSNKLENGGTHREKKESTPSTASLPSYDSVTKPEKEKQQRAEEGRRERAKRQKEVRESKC
# procedure-text: Automated patch-clamp, patient-identified variant in Expi293F cells
readout: IC50 (nM)
Report the figure in nM without appending any unit label.

Reported IC50 ( `Cc1cc(S(=O)(=O)Nc2cscn2)c(F)cc1N(C)[C@H]1CCN(Cc2ccccc2)C1` ) = 31

----------
# procedure-text: Bioanalytical assessment of plasma and brain concentrations after mouse DC-MES assay
# Assay type: in vivo
# experimental-context: mouse, plasma, oral, 30 mg/kg, Study17131, 30 mg/kg, WT mouse DC-MES acute; read-out: Mean [Palsma]
readout: concentration at 2 h (µM)
Report the figure in µM without appending any unit label.

Recorded concentration at 2 h (compound NC(=O)N1c2ccccc2C=Cc2ccccc21 [carbamazepine, Carbamazepine, reference compound] ): 34.5

----------
# procedure-text: Bioanalytical assessment of plasma and brain concentrations after 6 Hz assay
# Type: in vivo, mouse
# experimental-context: Scn8a^N1768D/+ (heterozygous gain-of-function knock-in line), mouse, brain, po, 100 mg/kg, Scn8a mice, 100 mg/kg PO single dose, after assay 2 hr post dose; read-out: Mean [Brain]
readout: concentration at 2 hr (nM)
Quick note: give the figure in nM, leave out the unit.

# compound Cc1cc(S(=O)(=O)Nc2cscn2)c(F)cc1N(C)[C@H]1CCN(Cc2ccccc2)C1 [NBI-921352] ; its concentration at 2 hr = 357

----------
# procedure-text: Bioanalytical assessment of plasma and brain concentrations after rat DC-MES assay
# Assay type: in vivo
# experimental-context: rat, brain, po, 3 mg/kg, sheet Figure 5G, 5H, 5I (rats), 3 mg/kg PO every 12 hr, day 7, 2 hr after 13th dose; read-out: Mean [Brain]
readout: concentration at 2 h (nM)
Enter your answer as a number in nM; do not include the unit.

molecule `Cc1cc(S(=O)(=O)Nc2cscn2)c(F)cc1N(C)[C@H]1CCN(Cc2ccccc2)C1` , concentration at 2 h observed: 39.6

----------
# procedure-text: Bioanalytical assessment of plasma and brain concentrations after 6 Hz assay
# Type: in vivo, mouse
# experimental-context: Scn8a N1768D/+, mouse, brain, oral, 10 mg/kg, Study16162, 10 mg/kg, SCN8A mouse 6HZ; read-out: Mean [Brain]
# Protocol: Approximately 0.5 mL of blood was collected from each mouse at the end of the assay via cardiac puncture under deep anesthesia. The blood samples were collected in a syringe and transferred to tubes containing EDTA. Blood was stored at 4 °C until centrifuged within 30 min of collection. […] Extraction of plasma samples was carried out by protein precipitation using acetonitrile. […] The samples were analyzed by UHPLC-ESI-MS/MS as described below. […]
readout: concentration at 2 h
Your reply should be a number followed by the unit it is expressed in.

concentration at 2 h in this record for NC(=O)N1c2ccccc2C=Cc2ccccc21 [carbamazepine, Carbamazepine, reference compound] : 15.7 µM

----------
# procedure-text: Bioanalytical assessment of plasma and brain concentrations after rat DC-MES assay
# Type: in vivo
# experimental-context: rat, plasma, po, 3 mg/kg, sheet Figure 5G, 5H, 5I (rats), 3 mg/kg PO every 12 hr, day 7, 2 hr after 13th dose; read-out: Mean [Plasma]
readout: concentration at 2 h
Please give the number followed by its unit.

Form field concentration at 2 h, entry `Cc1cc(S(=O)(=O)Nc2cscn2)c(F)cc1N(C)[C@H]1CCN(Cc2ccccc2)C1` : 123 nM
